pKd: −log10 of the molar value.
As an illustration, consider measured pKd for compounds on CSF-1R kinase (Homo sapiens, UniProt P07333).
Sequence (P07333 20-972): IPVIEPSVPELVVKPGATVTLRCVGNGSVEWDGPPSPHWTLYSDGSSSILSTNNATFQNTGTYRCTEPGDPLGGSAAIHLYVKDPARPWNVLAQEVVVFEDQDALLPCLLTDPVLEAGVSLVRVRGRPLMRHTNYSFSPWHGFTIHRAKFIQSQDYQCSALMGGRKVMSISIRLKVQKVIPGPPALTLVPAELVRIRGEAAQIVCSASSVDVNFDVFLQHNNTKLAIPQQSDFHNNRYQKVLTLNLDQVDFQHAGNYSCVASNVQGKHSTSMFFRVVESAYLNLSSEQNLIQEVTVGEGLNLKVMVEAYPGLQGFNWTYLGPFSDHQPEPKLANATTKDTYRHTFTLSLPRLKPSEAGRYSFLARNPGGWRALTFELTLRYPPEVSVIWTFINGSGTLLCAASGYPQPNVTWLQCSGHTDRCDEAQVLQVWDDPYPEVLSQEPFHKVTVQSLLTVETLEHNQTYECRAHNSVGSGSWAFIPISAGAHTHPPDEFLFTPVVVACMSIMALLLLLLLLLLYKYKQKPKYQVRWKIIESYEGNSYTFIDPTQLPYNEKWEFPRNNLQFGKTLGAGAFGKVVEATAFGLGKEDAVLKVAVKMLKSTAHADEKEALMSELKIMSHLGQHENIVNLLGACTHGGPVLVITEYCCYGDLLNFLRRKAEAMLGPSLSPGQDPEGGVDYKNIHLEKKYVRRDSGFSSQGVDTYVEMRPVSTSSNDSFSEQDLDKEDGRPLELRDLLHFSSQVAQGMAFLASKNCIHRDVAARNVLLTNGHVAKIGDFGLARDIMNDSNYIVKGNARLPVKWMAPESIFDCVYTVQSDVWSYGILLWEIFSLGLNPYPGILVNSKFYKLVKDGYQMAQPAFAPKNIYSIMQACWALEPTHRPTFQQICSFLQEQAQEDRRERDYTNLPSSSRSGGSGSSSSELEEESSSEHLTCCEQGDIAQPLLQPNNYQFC

In: I'd like to know its pKd. The compound in question is CC(C)(C)c1cc(NC(=O)Cc2ccc(-c3ccc(N)nc3Cl)cc2)no1.CS(=O)(=O)O [Example 132, methanesulfonate]
Out: ≥ 8.00

In: Any idea what pKd was measured for CC(C)(C)c1cc(NC(=O)Nc2ccc(-c3ccc(NCCN4CCC(F)(F)CC4)nc3)cc2)no1.CS(=O)(=O)O [Example 107, methanesulfonate] ?
Out: ≥ 8.00

In: Entry CC1(c2cc(NC(=O)Cc3ccc(-c4cnc(N)c(Cl)c4)cc3)no2)COC1.CS(=O)(=O)O [Example 128, methanesulfonate] : reported pKd = ?
Out: ≥ 8.00

In: // lookup pKd for CS(=O)(=O)O.Cc1nc(-c2ccc(CC(=O)Nc3cc(C(C)(C)C)on3)cc2)cnc1N [Example 113, methanesulfonate]
Out: ≥ 8.00

In: Quick check: pKd of COc1cc(-c2ccc(N)nc2)ccc1NC(=O)Nc1cc(C(C)(CF)CF)on1 [Example 68, methanesulfonate] ?
Out: ≥ 8.00

In: Please report the recorded pKd for `CC1(c2cc(NC(=O)Cc3ccc(-c4cnc(N)cc4F)cc3)no2)CC1` .
Out: ≥ 8.00

In: // pKd lookup, key: `CC(C)(C)c1cc(NC(=O)Nc2ccc(-c3cnc(NCCN4CCOCC4)c(C#N)c3)cc2)no1`
Out: 7.00 to 8.00

---

pKd, KIT kinase (Homo sapiens, UniProt P10721), per-entry values.
pKd: −log10 of the molar value.

In: pKd of `Cc1cc(N)ncc1-c1ccc(NC(=O)Nc2cc(C(C)(C)C)on2)nc1` on KIT kinase (Homo sapiens, UniProt P10721)?
Out: ≥ 9.00

In: Param readout= pKd; system= KIT kinase (Homo sapiens, UniProt P10721); entry= CC(=O)O.Nc1ccc(-c2ccc(CC(=O)Nc3cc(C4(CF)CC4)on3)cc2)cn1 [Example 103, acetate] ; returns value.
Out: ≥ 9.00

In: Request: pKd, test system KIT kinase (Homo sapiens, UniProt P10721), entry CC(C)(c1cc(NC(=O)Cc2ccc(-c3ccc(N)nc3)cc2)no1)C(F)(F)F [Example 72, acetate]
Out: 8.00 to 9.00

In: Hello, I am looking for reported pKd with KIT kinase (Homo sapiens, UniProt P10721) for CS(=O)(=O)O.Nc1ccc(-c2ccc(CC(=O)Nc3cc(C4(C(F)(F)F)CC4)on3)cc2)c(F)n1 [Example 137, methanesulfonate] . Could you help?
Out: 8.00 to 9.00

In: Identify the measured pKd of `CC(C)(C)c1cc(NC(=O)C(F)(F)c2ccc(-c3ccc(N)nc3)cc2)no1` for KIT kinase (Homo sapiens, UniProt P10721).
Out: 8.00 to 9.00

In: Notebook entry, KIT kinase (Homo sapiens, UniProt P10721) assay: pKd of `CC(C)(C)c1cc(NC(=O)Nc2ccc(-c3cnc(N)c(COCCO)c3)cc2)no1` = ?
Out: ≥ 9.00

In: Reported pKd for KIT kinase (Homo sapiens, UniProt P10721), given `COCCNc1ncc(-c2ccc(NC(=O)Nc3cc(C(C)(C)C)on3)cc2)cn1` ?
Out: ≥ 9.00

In: Which measured pKd belongs to CC(C)(C)c1cc(NC(=O)Cc2ccc(-c3cnc(N)c(F)c3)cc2)no1.CS(=O)(=O)O [Example 94, methanesulfonate] , tested on KIT kinase (Homo sapiens, UniProt P10721)?
Out: 8.00 to 9.00

In: Request body: readout pKd, system KIT kinase (Homo sapiens, UniProt P10721), query CC1(c2cc(NC(=O)Cc3ccc(-c4cnc(N)c(C(F)(F)F)c4)cc3)no2)COC1.CS(=O)(=O)O [Example 135, methanesulfonate] . Return the value.
Out: 8.00 to 9.00

In: Request body: readout pKd, system KIT kinase (Homo sapiens, UniProt P10721), query CS(=O)(=O)O.Nc1ccc(-c2ccc(CC(=O)Nc3cc(C4CCC4)no3)cc2)cn1 [Example 143, methanesulfonate] . Return the value.
Out: ≥ 9.00

In: Short answer please: pKd, KIT kinase (Homo sapiens, UniProt P10721), entry CS(=O)(=O)O.Nc1ncc(-c2ccc(CC(=O)Nc3cc(C4(C(F)(F)F)CC4)on3)cc2)cc1Cl [Example 133, methanesulfonate]
Out: 8.00 to 9.00

In: Checklist item: pKd tested on KIT kinase (Homo sapiens, UniProt P10721), entry `CC(C)(C)c1cc(NC(=O)Nc2ccc(-c3ccc(N)nc3)cc2Cl)no1` , value?
Out: 8.00 to 9.00

In: Form field: pKd recorded for `CC(C)(C)c1cc(NC(=O)Cc2ccc(-c3ccc(N)nc3)cc2)no1` with KIT kinase (Homo sapiens, UniProt P10721) (enter value)
Out: 8.00 to 9.00

In: What measured pKd is associated with `CC(C)(C)c1cc(NC(=O)Nc2ccc(-c3cnc(NCCN4CCOCC4)nc3)cc2F)no1` on KIT kinase (Homo sapiens, UniProt P10721)?
Out: ≥ 9.00

In: Form field: pKd recorded for `CC1(c2cc(NC(=O)Cc3ccc(-c4ccc(N)nc4F)cc3)no2)CC1` with KIT kinase (Homo sapiens, UniProt P10721) (enter value)
Out: ≥ 9.00
